# PROTOCOL_NOTES: In vivo pharmacokinetics after intratracheal instillation
# Design: species or system mouse
# RECORDED_CONDITIONS: male, CD1, mouse, inhaled or intranasal; mice, intratracheal 0.5 mg kg^−1, BALF; read-out: AUC0‐t BALF
OBSERVATION_TYPE: AUC (ng·h/mL)
Express it in ng·h/mL; write the number only.

What measured AUC goes with FC(F)(F)c1cc(NCc2cn(-c3ccc(Oc4ccccc4)cc3)nn2)ccn1 ? 4840

* * *

# PROTOCOL_NOTES: Metabolic stability, mouse liver S9
# Format: in vitro ADME
# RECORDED_CONDITIONS: pooled mouse liver S9 fraction, Table 2, read-out: Metabolic stability t 1/2 S9 mouse
# Protocol: For the evaluation of combined phase I and phase II metabolic stability, the compound (1 μM) was incubated with 1 mg/mL pooled liver S9 fraction from the respective species (Xenotech), […] 2 mM NADPH, 1 mM UDPGA, 10 mM MgCl2, 5 mM GSH and 0.1 mM PAPS at 37 °C for […] 0, 5, 15, 30 or 60 min. […] were determined in parallel to confirm the enzymatic activity of the S9 fraction. […] Concentration of the remaining test compound at the different time points was analyzed by […]
Give measured half-life at 1 μM for each item. Keep answers brief.
Express it in min; write the number only.

What measured half-life at 1 μM goes with FC(F)(F)c1cc(NCc2cn(-c3ccc(Oc4ccccc4)cc3)nn2)ccn1 [Compound 4] ? 29

What measured half-life at 1 μM goes with COc1ccc(-n2cc(CNc3ccnc(C(F)(F)F)c3)nn2)cc1Cl [Compound 17] ? 11

* * *

Give measured solubility kinetic at 5 min for each item. Keep answers brief.
# PROTOCOL_NOTES: Kinetic turbidimetric solubility assay
# Assay type: physicochemical
# RECORDED_CONDITIONS: PBS, aqueous buffer, kinetic from dmso stock, read-out: Kinetic solubility S kin
# Description: 5.4. Kinetic Turbidimetric Solubility Assay The desired compounds were sequentially diluted in DMSO in a 96-well plate. A 3 µL of each well were transferred into another three 96-well plates, followed by addition of 147 µL of PBS. Plates were shaken for 5 min at 600 rpm at room temperature (r.t.), and the absorbance at 620 nm was measured. Absorbance values were normalized by blank […] subtraction and plotted using GraphPad Prism 8.4.2 (GraphPad Software, San Diego, CA, […]
Express it in µM; write the number only.

What measured solubility kinetic at 5 min goes with FC(F)(F)Oc1ccc(-n2cc(CNc3ccnc(C(F)(F)F)c3)nn2)cc1Cl ? 31.3

What measured solubility kinetic at 5 min goes with COc1ccc(-n2cc(CNc3ccnc(C(F)(F)F)c3)nn2)cc1Cl ? 64

What measured solubility kinetic at 5 min goes with FC(F)(F)c1cc(NCc2cn(-c3ccc(Oc4ccccc4)cc3)nn2)ccn1 ? 7.7

What measured solubility kinetic at 5 min goes with Nc1cc(NCc2cn(-c3ccc(Oc4ccccc4)cc3)nn2)cc(C(F)(F)F)n1 ? 13

* * *

# PROTOCOL_NOTES: Metabolic stability, monkey liver S9
# Type: in vitro ADME
# RECORDED_CONDITIONS: pooled liver S9 fraction, Table S4, read-out: t1/2 monkey liver S9
OBSERVATION_TYPE: half-life at 1 μM (min)
Express it in min; write the number only.

What measured half-life at 1 μM goes with FC(F)(F)c1cc(NCc2cn(-c3ccc(Oc4ccccc4)cc3)nn2)ccn1 ? 22.8

* * *

# PROTOCOL_NOTES: In vivo pharmacokinetics after intratracheal instillation
# Set-up: species or system mouse
# RECORDED_CONDITIONS: male, CD1, mouse, inhaled or intranasal, 0.5 mg kg^−1; mice, intratracheal, BALF; read-out: MRT BALF
Give measured MRT for each item. Keep answers brief.
Express it in h; write the number only.

What measured MRT goes with NC[C@H]1O[C@H](O[C@H]2[C@H](O)[C@@H](O[C@H]3O[C@H](CO)[C@@H](O)[C@H](N)[C@H]3O)[C@H](N)C[C@@H]2N)[C@H](N)C[C@@H]1O ? 1.4

What measured MRT goes with FC(F)(F)c1cc(NCc2cn(-c3ccc(Oc4ccccc4)cc3)nn2)ccn1 ? 1.57

* * *

Give measured Vd/F for each item. Keep answers brief.
# PROTOCOL_NOTES: In vivo pharmacokinetics after intratracheal instillation
# Parameters: species or system mouse
# RECORDED_CONDITIONS: male, CD1, mouse, inhaled or intranasal, 0.5 mg kg^−1; mice, intratracheal, plasma; read-out: Vz/F_obs
Express it in L/kg; write the number only.

What measured Vd/F goes with NC[C@H]1O[C@H](O[C@H]2[C@H](O)[C@@H](O[C@H]3O[C@H](CO)[C@@H](O)[C@H](N)[C@H]3O)[C@H](N)C[C@@H]2N)[C@H](N)C[C@@H]1O ? 2.25

What measured Vd/F goes with FC(F)(F)c1cc(NCc2cn(-c3ccc(Oc4ccccc4)cc3)nn2)ccn1 ? 10.5

* * *

Give measured MRT for each item. Keep answers brief.
# PROTOCOL_NOTES: In vivo pharmacokinetics after intratracheal instillation
# Parameters: species or system mouse
# RECORDED_CONDITIONS: male, CD1, mouse, inhaled or intranasal, 0.5 mg kg^−1; mice, intratracheal, plasma; read-out: MRT plasma
Express it in h; write the number only.

What measured MRT goes with NC[C@H]1O[C@H](O[C@H]2[C@H](O)[C@@H](O[C@H]3O[C@H](CO)[C@@H](O)[C@H](N)[C@H]3O)[C@H](N)C[C@@H]2N)[C@H](N)C[C@@H]1O ? 1.45

What measured MRT goes with FC(F)(F)c1cc(NCc2cn(-c3ccc(Oc4ccccc4)cc3)nn2)ccn1 ? 1.2

* * *

# TARGET_OR_TEST_SYSTEM: PqsR (Pseudomonas aeruginosa, UniProt Q9I4X0)
# Construct: which expresses PqsR and the β-galactosidase LacZ under the control of the pqsA promoter; expressed in transfected cells; host or cells: E. coli DH5α carrying plasmid pEAL08-2
# Sequence (Q9I4X0 whole entry): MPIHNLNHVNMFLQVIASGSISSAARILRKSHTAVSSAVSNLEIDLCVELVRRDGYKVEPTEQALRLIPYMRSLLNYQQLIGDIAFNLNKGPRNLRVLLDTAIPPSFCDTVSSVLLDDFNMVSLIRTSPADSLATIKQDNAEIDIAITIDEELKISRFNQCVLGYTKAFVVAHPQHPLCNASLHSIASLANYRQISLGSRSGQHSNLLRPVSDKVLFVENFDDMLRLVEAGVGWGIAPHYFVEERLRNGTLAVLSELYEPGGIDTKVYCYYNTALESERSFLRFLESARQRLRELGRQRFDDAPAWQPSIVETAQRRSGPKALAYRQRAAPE
# PROTOCOL_NOTES: PqsR β-galactosidase reporter-gene assay in E. coli DH5α
# Format: cell-based
OBSERVATION_TYPE: log10(IC50) (log10 of the value in nM)
In our notation, the value equals log10 of IC50 in nM.

Form entry - test system: PqsR (Pseudomonas aeruginosa, UniProt Q9I4X0); read-out: log10(IC50); compound: FC(F)(F)c1cc(NCc2cn(-c3ccc(Cl)cc3)nn2)ccn1 1.90

Form entry - test system: PqsR (Pseudomonas aeruginosa, UniProt Q9I4X0); read-out: log10(IC50); compound: COc1ccc(-n2cc(CNc3ccnc(C(F)(F)F)c3)nn2)cc1 1.91

Form entry - test system: PqsR (Pseudomonas aeruginosa, UniProt Q9I4X0); read-out: log10(IC50); compound: FC(F)(F)Oc1ccc(-n2cc(CNc3ccnc(C(F)(F)F)c3)nn2)cc1Cl 1.18

Form entry - test system: PqsR (Pseudomonas aeruginosa, UniProt Q9I4X0); read-out: log10(IC50); compound: FC(F)(F)c1cc(NCc2cn(-c3ccc(Cl)c(Cl)c3)nn2)ccn1 1.38

Form entry - test system: PqsR (Pseudomonas aeruginosa, UniProt Q9I4X0); read-out: log10(IC50); compound: FC(F)(F)c1cc(NCc2cn(-c3ccc(Oc4ccccc4)cc3)nn2)ccn1 1.04

Form entry - test system: PqsR (Pseudomonas aeruginosa, UniProt Q9I4X0); read-out: log10(IC50); compound: N#Cc1ccc(-n2cc(CNc3ccnc(C(F)(F)F)c3)nn2)cc1 2.82

Form entry - test system: PqsR (Pseudomonas aeruginosa, UniProt Q9I4X0); read-out: log10(IC50); compound: COc1ccc(-n2cc(CNc3ccnc(C(F)(F)F)c3)nn2)cc1Cl 0.90

Form entry - test system: PqsR (Pseudomonas aeruginosa, UniProt Q9I4X0); read-out: log10(IC50); compound: FC(F)(F)c1cc(NCc2cn(-c3ccc(Nc4ccccc4)cc3)nn2)ccn1 1.49

Form entry - test system: PqsR (Pseudomonas aeruginosa, UniProt Q9I4X0); read-out: log10(IC50); compound: FC(F)(F)c1ccc(-n2cc(CNc3ccnc(C(F)(F)F)c3)nn2)cc1 2.11

Form entry - test system: PqsR (Pseudomonas aeruginosa, UniProt Q9I4X0); read-out: log10(IC50); compound: FC(F)(F)c1cc(NCc2cn(-c3cccc(Cl)c3)nn2)ccn1 2.09

Form entry - test system: PqsR (Pseudomonas aeruginosa, UniProt Q9I4X0); read-out: log10(IC50); compound: FC(F)(F)Oc1ccc(-n2cc(CNc3ccnc(C(F)(F)F)c3)nn2)cc1 1.48

Form entry - test system: PqsR (Pseudomonas aeruginosa, UniProt Q9I4X0); read-out: log10(IC50); compound: Fc1ccc(-n2cc(CNc3ccnc(C(F)(F)F)c3)nn2)cc1 2.29

Form entry - test system: PqsR (Pseudomonas aeruginosa, UniProt Q9I4X0); read-out: log10(IC50); compound: FC(F)(F)c1cc(NCc2cn(-c3ccc(Oc4ccccc4)c(Cl)c3)nn2)ccn1 1.08

Data origin: paper PMC8224453
